molecular target: NRAS WT (Homo sapiens (Human), UniProt P01111+P62937); test: Ras-Raf (BRAF RBD) disruption / FRET / MOA assay, NRAS WT; type: biochemical; conditions: read-out: IC50* NRAS WT FRET data
Sequence (P01111 whole entry): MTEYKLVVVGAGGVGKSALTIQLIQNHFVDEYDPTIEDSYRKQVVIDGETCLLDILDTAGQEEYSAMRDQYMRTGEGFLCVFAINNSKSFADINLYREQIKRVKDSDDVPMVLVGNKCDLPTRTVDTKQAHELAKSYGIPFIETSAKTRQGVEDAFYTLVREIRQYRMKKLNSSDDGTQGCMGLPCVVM
Sequence (P62937 whole entry): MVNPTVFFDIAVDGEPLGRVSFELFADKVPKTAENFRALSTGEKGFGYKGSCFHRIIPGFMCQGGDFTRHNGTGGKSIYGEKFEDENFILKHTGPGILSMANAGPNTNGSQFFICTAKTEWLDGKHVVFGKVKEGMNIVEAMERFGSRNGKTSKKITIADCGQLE
Let's look at some molecules and their measured IC50.

Please review the following examples before continuing.
molecule | IC50
CO[C@@H](COC1CN(C(=O)C#CC(C)(C)N(C)C)C1)C(=O)N[C@H]1Cc2coc(n2)-c2ccc3c(c2)c(c(-c2cccnc2[C@H](C)OC)n3CC(F)(F)F)CC(C)(C)COC(=O)[C@@H]2CCCN(N2)C1=O (atropisomer, axis not shown) [Example A579] | 1 to 10 µM
C=CC(=O)N1CC[C@H](C(=O)N(C)[C@H](C(=O)N[C@H]2Cc3cccc(c3)-c3ccc4c(c3)c(c(-c3cc(CN(C)C)cnc3[C@H](C)OC)n4CC)CC(C)(C)COC(=O)[C@@H]3CCCN(N3)C2=O)C(C)C)C1 (atropisomer, axis not shown) [Example A522] | 1 to 10 µM
CO[C@@H](C)c1ncccc1-c1c2c3cc(ccc3n1CC(F)(F)F)N1CCO[C@@H](C[C@H](NC(=O)[C@H](C(C)C)N3CC[C@]4(CCN(C(=O)C#CC(C)(C)N(C)C)C4)C3=O)C(=O)N3CCC[C@H](N3)C(=O)OCC(C)(C)C2)C1 (atropisomer, axis not shown) [Example A642] | 1 to 10 µM

Would you kindly look at the next entry?
Briefly, IC50 measured for C=CC(=O)N(C)CCN1CCN(C(=O)N(C)[C@H](C(=O)N[C@H]2Cc3cccc(c3)-c3ccc4c(c3)c(c(-c3cccnc3[C@H](C)OC)n4CC)CC(C)(C)COC(=O)[C@@H]3CCCN(N3)C2=O)C(C)C)CC1 (atropisomer, axis not shown) [Example A539] : 0.1 to 1 µM
